Origin of measurements: PubChem BioAssay

test: inhibition of 3D7 malaria parasite growth – strain 3D7 (AID 2306);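 also: 0% = DMSO wells and 100% = chloroquine plus artemisinin control wells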; conditions: P. falciparum 3D7 erythrocytic growth, LDH absorbance, 72 h; at 2 µM; active compounds read high
growth inhibition values, listed per item
Respond numerically; units are % and should not be typed.

Cc1ccc2c(c1)c(C1CCN(C(=O)c3ccc([N+](=O)[O-])o3)CC1)cn2C = 97
O=C(N[C@@H](CC1CCCCC1)C(=O)NC1CCCc2ccccc21)c1ccc(O)c(-c2cccc(C(F)(F)F)c2)c1 (stereo not given in full) = 100
O=C(Nc1ccc(-c2ccc(-c3nc4ccccc4[nH]3)s2)cc1)c1ccncc1 = 94
Nc1ncc(-c2ccccc2)cc1-c1cccc2ncccc12 = 97
CN(C)CCNCc1ncsc1-c1ccc2c(Nc3ccc(F)cc3Cl)ccnc2c1 = 100

Data request, read-out growth inhibition, for O=C1C2=C(Nc3ccccc3SC2c2cccs2)c2ccccc21 (stereo not given)
96

Another: c1cncc(CCNCc2ccc(-c3ccc(CNC4Cc5ccccc5C4)cc3)cc2)c1
92

Then what about the compound CC(C)(C)c1ccc(NC(=O)c2ccc(CN3CCCN(Cc4ccsc4)CC3)cc2)cc1 ?
96

// next record FC(F)(F)c1ccc2nccc(NN=CC=Cc3ccccc3)c2c1
82

Likewise for COc1ccc(C(=O)N2CCC3(CC2)C(=O)N(CC(=O)NC2CCCCC2)CN3c2ccccc2)c(OC)c1 ?
100

For CN(CCCCCNC(=O)/C=C/c1ccc(Cl)c(Cl)c1)CCc1c[nH]c2ccccc12 then?
91

Repeat with Cc1cccc(-c2nc3cc(NC(=O)c4ccc([N+](=O)[O-])o4)ccc3o2)c1
94

Subsequent entry: COc1cc(C(=O)N2CCOC(CCN3CC[C@@H]4c5ccccc5C[C@@H]43)(c3ccc(Cl)c(Cl)c3)C2)cc(OC)c1OC (stereo not given in full)
88

Could you do the same for Nc1nc(N)c2c(Cl)c(N(Cc3ccccc3)Cc3ccccc3)ccc2n1 , please?
96

Same question for Cc1ccccc1CNC(=O)Nc1cccc(-c2csc(N=C(N)N)n2)c1 please.
99

Cool, now CN(C)c1ccc(C2(c3ccccc3)N=C(N)N(CCCc3ccccc3)C2=O)cc1 (stereo not given)
99

Now consider CN(C)CCN(Cc1ccccc1-c1ccc(CNCCc2ccccc2)cc1)C(=O)c1ccccc1 and answer again.
95

Record: Cc1cc(N[C@@H](CC(C)C)C(=O)NC2CCCC2)nc(NCCc2ccc(F)cc2)n1
100

Moving on to the next compound: N#Cc1cccc(NC(=O)Nc2ccc(-c3csc(-c4nc5ccccc5[nH]4)c3)cc2)c1
103

Item: Cc1[nH]c(C)c(-c2ccc(OCc3ccccc3C(F)(F)F)nc2)c(=O)c1Br
98

Please give the result for CCNc1cc(C(=O)N[C@@H](Cc2ccccc2)[C@H](O)CNC(C)(C)CC(C)(C)C)c(F)c(N2CCCCS2(=O)=O)c1 too.
94

Could you do the same for CN1CCN(Cc2c(O)ccc3c(=O)c(Oc4ccc(C(C)(C)C)cc4)c(C(F)(F)F)oc23)CC1 , please?
99

Also need CC(C)(C)C/C=C\c1ccc(C(=O)NCC2CC2)cc1 , thanks.
94
